Data origin: paper PMC10041525

Biological target: DNA gyrase from E. coli (Escherichia coli, UniProt P0AES6)
Construct: purchased Inspiralis
Assay: supercoiling HTS plate assay
Format: biochemical
Details: IC50 [nM] E. coli DNA gyrase
# key: entry, value: IC50
MEASURED ATTRIBUTE: IC50 (nM)

> print(dat)
                                    compound                       experimental.target  readout.relation  experimental.value
 1  Cc1[nH]c(C(=O)Nc2nc3c(N4CC[C@H](N(C)C)C4)cc(C(=O)O)cc3s2)c(Cl)c1Cl.Cl.N [7l]  DNA gyrase from E. coli (Escherichia coli, UniProt P0AES6)                 <                  10
 2  Cc1[nH]c(C(=O)Nc2nc3c(N4CCC(O)CC4)cc(C(=O)O)cc3s2)c(Cl)c1Cl [7p]  DNA gyrase from E. coli (Escherichia coli, UniProt P0AES6)                 <                  10
 3  Cc1[nH]c(C(=O)Nc2nc3c(N4CCOC4=O)cc(C(=O)O)cc3s2)c(Cl)c1Cl [7m]  DNA gyrase from E. coli (Escherichia coli, UniProt P0AES6)                 <                  10
 4  COCC1CCCN1c1cc(C(=O)O)cc2sc(NC(=O)c3[nH]c(C)c(Cl)c3Cl)nc12 (stereo not drawn) [7n]  DNA gyrase from E. coli (Escherichia coli, UniProt P0AES6)                 =                  14
 5  Cc1[nH]c(C(=O)Nc2nc3c(CN4CCOCC4)cc(C(=O)O)cc3s2)c(Cl)c1Cl.Cl [compound 14]  DNA gyrase from E. coli (Escherichia coli, UniProt P0AES6)                 =                  13
 6  Cc1[nH]c(C(=O)Nc2nc3c(N4CCC5(CC4)OCCO5)cc(C(=O)O)cc3s2)c(Cl)c1Cl [7r]  DNA gyrase from E. coli (Escherichia coli, UniProt P0AES6)                 =                  17
 7  Cc1[nH]c(C(=O)Nc2nc3c(N4CC[S+]([O-])CC4)cc(C(=O)O)cc3s2)c(Cl)c1Cl [7s]  DNA gyrase from E. coli (Escherichia coli, UniProt P0AES6)                 <                  10
 8  Cc1[nH]c(C(=O)Nc2nc3c(N4CCOCC4)cc(C(=O)O)cc3s2)cc1F [16b]  DNA gyrase from E. coli (Escherichia coli, UniProt P0AES6)                 =                  31
 9  Cc1[nH]c(C(=O)Nc2nc3c(N4CCCC4)cc(C(=O)O)cc3s2)c(Cl)c1Cl [7j]  DNA gyrase from E. coli (Escherichia coli, UniProt P0AES6)                 <                  10
10  Cc1[nH]c(C(=O)Nc2nc3c(N4CCNCC4)cc(C(=O)O)cc3s2)c(Cl)c1Cl.Cl [8b]  DNA gyrase from E. coli (Escherichia coli, UniProt P0AES6)                 <                  10
11  Cc1[nH]c(C(=O)Nc2nc3c(N4CCOCC4)cc(C(=O)O)cc3s2)cc1Cl [16a]  DNA gyrase from E. coli (Escherichia coli, UniProt P0AES6)                 =                  13
12  COC[C@@H]1CCCN1c1cc(C(=O)O)cc2sc(NC(=O)c3[nH]c(C)c(Cl)c3Cl)nc12 [7o]  DNA gyrase from E. coli (Escherichia coli, UniProt P0AES6)                 =                  25
13  Cc1[nH]c(C(=O)Nc2nc3c(N4CCOC[C@H]4C)cc(C(=O)O)cc3s2)c(Cl)c1Cl [7c]  DNA gyrase from E. coli (Escherichia coli, UniProt P0AES6)                 =                  30
14  Cc1[nH]c(C(=O)Nc2nc3c(N4CCOC[C@@H]4C)cc(C(=O)O)cc3s2)c(Cl)c1Cl [7d]  DNA gyrase from E. coli (Escherichia coli, UniProt P0AES6)                 =                  23
15  Cc1[nH]c(C(=O)Nc2nc3c(N4CCOCC4)cc(C(=O)O)cc3s2)cc1C#N [16c]  DNA gyrase from E. coli (Escherichia coli, UniProt P0AES6)                 =                  32
16  Cc1[nH]c(C(=O)Nc2nc3c(N4CC[C@H](N)C4)cc(C(=O)O)cc3s2)c(Cl)c1Cl.Cl [8a]  DNA gyrase from E. coli (Escherichia coli, UniProt P0AES6)                 <                  10
17  Cc1[nH]c(C(=O)Nc2nc3c(N4[C@@H]5CC[C@H]4COC5)cc(C(=O)O)cc3s2)c(Cl)c1Cl [7h]  DNA gyrase from E. coli (Escherichia coli, UniProt P0AES6)                 =                  16
18  COCCCNc1cc(C(=O)O)cc2sc(NC(=O)c3[nH]c(C)c(Cl)c3Cl)nc12.N [8c]  DNA gyrase from E. coli (Escherichia coli, UniProt P0AES6)                 =                  15

###

Test system: E. faecalis ATCC 29212
Assay: IHMA QC MIC
Type: cell-based
Settings: Enterococcus faecalis, ATCC29212
// reported MIC per item

SMILES	MIC
C[C@H]1COc2c(N3CCN(C)CC3)c(F)cc3c(=O)c(C(=O)O)cn1c23.C[C@H]1COc2c(N3CCN(C)CC3)c(F)cc3c(=O)c(C(=O)O)cn1c23.O	1 µg/mL
CN[C@H](CC(C)C)C(=O)N[C@H]1C(=O)N[C@@H](CC(N)=O)C(=O)N[C@H]2C(=O)N[C@H]3C(=O)N[C@H](C(=O)N[C@H](C(=O)O)c4cc(O)cc(O)c4-c4cc3ccc4O)[C@H](O)c3ccc(c(Cl)c3)Oc3cc2cc(c3O[C@@H]2O[C@H](CO)[C@@H](O)[C@H](O)[C@H]2O[C@H]2C[C@](C)(N)[C@H](O)[C@H](C)O2)Oc2ccc(cc2Cl)[C@H]1O	2 µg/mL
Cc1[nH]c(C(=O)Nc2nc3c(N4[C@@H]5CC[C@H]4COC5)cc(C(=O)O)cc3s2)c(Cl)c1Cl	≤ 0.03 µg/mL
Cc1[nH]c(C(=O)Nc2nc3c(N4CCOCC4)cc(C(=O)O)cc3s2)c(Cl)c1Cl	0.06 µg/mL

###

Biological target: S. aureus topo IV (Staphylococcus aureus, UniProt P0C1S7)
MEASURED ATTRIBUTE: IC50 (nM)

> print(dat)
                                     smiles                       experimental.target  measured.attribute  experimental.value
1  Cc1[nH]c(C(=O)Nc2nc3c(N4CCOCC4)cc(C(=O)O)cc3s2)c(Cl)c1Cl  S. aureus topo IV (Staphylococcus aureus, UniProt P0C1S7)                IC50                   8

###

Tested on: 100 A. baumannii strains (50 MDR, 50 non-MDR)
Assay: MIC broth microdilution at IHMA Europe, panel of 100 strains
Format: cell-based
Conditions: Acinetobacter baumannii, A. baumannii IHMA 1984665, Lithuania 2019, MDR; read-out: MIC
# Lookup of reported MIC keyed by entry

COMPOUND	MIC
CO/N=C(\C(=O)N[C@@H]1C(=O)N2C(C(=O)[O-])=C(C[N+]3(C)CCCC3)CS[C@H]12)c1csc(N)n1 [Cefepime, cefepime]	> 32 µg/mL
C[C@@H](O)[C@H]1C(=O)N2C(C(=O)O)=C(S[C@@H]3CN[C@H](C(=O)N(C)C)C3)[C@H](C)[C@H]12 [Meropenem, meropenem]	> 16 µg/mL
Cc1[nH]c(C(=O)Nc2nc3c(N4[C@@H]5CC[C@H]4COC5)cc(C(=O)O)cc3s2)c(Cl)c1Cl [7h]	2 µg/mL
CN(C)c1cc(NC(=O)CNC(C)(C)C)c(O)c2c1C[C@H]1C[C@H]3[C@H](N(C)C)C(O)=C(C(N)=O)C(=O)[C@@]3(O)C(O)=C1C2=O [Tigecycline, tigecycline]	4 µg/mL
O=C(O)c1cn(C2CC2)c2cc(N3CCNCC3)c(F)cc2c1=O [ciprofloxacin]	> 16 µg/mL
C[C@@H](O)[C@H]1C(=O)N2C(C(=O)O)=C(SCCNC=N)C[C@H]12 [Imipenem, imipenem]	> 16 µg/mL
